- Organism: Mus musculus
- TEST NAME: Antinociceptive activity determined in acetic acid induced mouse writhing test
- Assay type: functional
RECORDED ENDPOINT: log10(ED50) (log10 of the value in mg/kg)
The base-10 logarithm of ED50, taken with ED50 in mg/kg, is what appears here.

Solved entries (count: 5):
{"columns": ["COMPOUND", "log10(ED50)"],
 "data": [
  ["CN1CCC23CC(=O)CCC2C1Cc1ccc(O)cc13 (configuration not stated)", -0.82],
  ["CN1CC[C@]23c4c5ccc(O)c4O[C@H]2[C@@H](O)C=C[C@H]3[C@H]1C5.CN1CC[C@]23c4c5ccc(O)c4O[C@H]2[C@@H](O)C=C[C@H]3[C@H]1C5.O=S(=O)(O)O", -0.10],
  ["CN1CCC23CC(=O)CCC2C1Cc1cccc(O)c13 (configuration not stated)", -0.74],
  ["O=C1CCC2C3Cc4cccc5c4C2(CCN3CC2CC2)C1O5 (configuration not stated)", -1.22],
  ["COc1cccc2c1C13CCN(C)C(C2)C1CCC(=O)C3 (configuration not stated)", -0.68]
]}

Item: `C=CCN1CC[C@]23c4c5ccc(O)c4O[C@H]2[C@@H](O)C=C[C@H]3[C@H]1C5` | log10(ED50): 0.09

Item: O=C1CCC2C3Cc4cccc(O)c4C2(CCN3CC2CC2)C1 (configuration not stated) | log10(ED50): -0.19
